These measurements were taken from paper PMC6492070.

System: CYP2A19
measuredAttribute: pKi
Units for pKi: none; it is -log10 of a concentration expressed in mol/L.

(Q) Enter reported pKi observed with CYP2A19 for CCCC[C@@H](C)[C@@H](OC(=O)C[C@@H](CC(=O)O)C(=O)O)[C@H](C[C@@H](C)C[C@H](O)CCCC[C@@H](O)C[C@H](O)[C@H](C)N)OC(=O)C[C@@H](CC(=O)O)C(=O)O
(A) 5.64

----------
Test system: CYP2C
conditionDetails: both, hybrid sow × Piétrain boar, pig
measuredAttribute: Km
Remember to quote the unit after the number.

(Q) Could you tell me which Km is on file for CCCCNC(=O)NS(=O)(=O)c1ccc(C)cc1 [TB, tolbutamide, reference compound] ?
(A) 804 µM

----------
assay: in vivo
conditionDetails: both, hybrid sow × Piétrain boars, pig, iv, 0.036 mg/kg, AUC (0-inf)
measuredAttribute: AUC(0-inf) (ng·h/mL)
Give just the numeric value; ng·h/mL need not be written.

(Q) Could you tell me which AUC(0-inf) is on file for Cc1ncc2n1-c1ccc(Cl)cc1C(c1ccccc1F)=NC2 ?
(A) 11.5

----------
Tested on: CYP2D
assay: in vitro
conditionDetails: both, hybrid sow × Piétrain boar, pig
measuredAttribute: Km (µM)
Give just the numeric value; µM need not be written.

(Q) Could you tell me which Km is on file for COc1ccc2c(c1)[C@]13CCCC[C@@H]1[C@H](C2)N(C)CC3 [DXM, Dextromethorphan, reference compound] ?
(A) 2

----------
assay: in vivo
conditionDetails: both, hybrid sow × Piétrain boars, pig, iv, 0.036 mg/kg, Vd
measuredAttribute: Vd (L)
Give just the numeric value; L need not be written.

(Q) Could you tell me which Vd is on file for Cc1ncc2n1-c1ccc(Cl)cc1C(c1ccccc1F)=NC2 ?
(A) 60.8

----------
targetOrTestSystem: CYP3A
measuredAttribute: Ki (µM)
Give just the numeric value; µM need not be written.

(Q) Could you tell me which Ki is on file for CC(=O)OC[C@]12C[C@H](OC(=O)CC(C)C)C(C)=C[C@H]1O[C@@H]1[C@H](O)[C@@H](OC(C)=O)[C@@]2(C)[C@]12CO2 ?
(A) 27

----------
assay: in vivo
conditionDetails: both, hybrid sow × Piétrain boars, pig, po, 0.15 mg/kg, Mean Tmax after removing the observation
measuredAttribute: Tmax
Remember to quote the unit after the number.

(Q) Could you tell me which Tmax is on file for Cc1ncc2n1-c1ccc(Cl)cc1C(c1ccccc1F)=NC2 ?
(A) 42.8 min

----------
Test system: CYP2A19
assay: in vitro
conditionDetails: both, hybrid sow × Piétrain boar, pig
measuredAttribute: Km (µM)
Give just the numeric value; µM need not be written.

(Q) Could you tell me which Km is on file for O=c1ccc2ccccc2o1 [CM, coumarin, reference compound] ?
(A) 0.91

----------
assay: in vivo
conditionDetails: both, hybrid sow × Piétrain boars, pig, po, 0.15 mg/kg, Tmax of one pig
measuredAttribute: Tmax (h)
Give just the numeric value; h need not be written.

(Q) Could you tell me which Tmax is on file for Cc1ncc2n1-c1ccc(Cl)cc1C(c1ccccc1F)=NC2 ?
(A) 4

----------
assay: in vivo
conditionDetails: both, hybrid sow × Piétrain boars, pig, po, 0.15 mg/kg, Ke
measuredAttribute: k el (s⁻¹)
Give just the numeric value; s⁻¹ need not be written.

(Q) Could you tell me which k el is on file for Cc1ncc2n1-c1ccc(Cl)cc1C(c1ccccc1F)=NC2 ?
(A) 0.000108
